Source: patent US20250268903A1

STUDY SYSTEM: human RXFP1 (Homo sapiens)
Sequence (Q9HBX9 1-757): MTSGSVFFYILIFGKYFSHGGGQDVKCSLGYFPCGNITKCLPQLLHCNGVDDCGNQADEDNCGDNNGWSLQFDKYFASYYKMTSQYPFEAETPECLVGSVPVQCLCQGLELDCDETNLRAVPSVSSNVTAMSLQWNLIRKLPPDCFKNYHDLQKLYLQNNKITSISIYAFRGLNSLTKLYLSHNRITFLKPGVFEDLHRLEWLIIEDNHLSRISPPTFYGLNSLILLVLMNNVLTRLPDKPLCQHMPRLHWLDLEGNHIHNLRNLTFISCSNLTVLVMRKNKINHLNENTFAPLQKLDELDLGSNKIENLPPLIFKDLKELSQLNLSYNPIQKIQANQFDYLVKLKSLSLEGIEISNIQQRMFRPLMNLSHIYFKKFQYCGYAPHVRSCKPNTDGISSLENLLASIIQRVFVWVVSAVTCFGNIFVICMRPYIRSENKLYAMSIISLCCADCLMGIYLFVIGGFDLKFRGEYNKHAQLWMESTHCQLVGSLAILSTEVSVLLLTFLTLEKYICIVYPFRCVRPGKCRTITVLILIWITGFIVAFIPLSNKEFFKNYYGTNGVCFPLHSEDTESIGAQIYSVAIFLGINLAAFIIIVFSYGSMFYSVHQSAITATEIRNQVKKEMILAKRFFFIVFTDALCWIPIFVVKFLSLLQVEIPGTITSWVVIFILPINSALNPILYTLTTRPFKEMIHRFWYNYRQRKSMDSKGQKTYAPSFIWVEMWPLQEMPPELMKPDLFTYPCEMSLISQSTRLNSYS
ASSAY NOTES: hRXFP1 HEK293 cAMP assay (HTRF)
EXPERIMENTAL PARAMETERS: HEK293 cells stably expressing human RXFP1, 30 min at room temperature
pEC50: −log10 of the molar value.
Please enter True where pEC50 is greater than or equal to 7, and False where it is lower.

COMPOUND | CATEGORY LABEL
COc1ccc(CCCC(F)(F)F)cc1C(=O)NC1C2CCC(/C2=C/C2CCC2)[C@@H]1C(=O)Nc1ccc(F)c(C(F)(F)F)c1 (stereo partly drawn) [Example 195] | True
COc1ccc(S(=O)(=O)N2CCO[C@@H](CO)C2)cc1C(=O)NC1C2CCC(/C2=C/C2CC2)[C@@H]1C(=O)Nc1ccc(F)c(C(F)(F)F)c1 (stereo partly drawn) [Example 201] | True
COc1ccc(CCCCO)cc1C(=O)N[C@@H]1C2CCC(/C2=C/C2CCC2)[C@@H]1C(=O)Nc1ccc(F)c(C(F)(F)F)c1 (stereo partly drawn) [Example 96] | True
COc1ccc(COC[C@@H]2C[C@@H]2C(=O)OCc2ccccc2)cc1C(=O)N[C@H]1[C@@H](C(=O)Nc2ccc(F)c(C(F)(F)F)c2)[C@H]2CC[C@@H]1/C2=C\C1CC1 [Example 287] | False
COc1ccc(S(=O)(=O)N2CCN(C(=O)OC(C)(C)C)CC2CCO)cc1C(=O)N[C@H]1[C@@H](C(=O)Nc2ccc(F)c(C(F)(F)F)c2)[C@H]2CC[C@@H]1/C2=C\C(F)(F)F (stereo partly drawn) [Example 215] | False

Determine whether measured pEC50 meets or exceeds 7 for COc1ccc(C2CCCCC2O)cc1C(=O)N[C@@H]1C2CCC(/C2=C/C(F)(F)F)[C@@H]1C(=O)Nc1ccc(F)c(C(F)(F)F)c1 (single isomer, unassigned) [Example 58]
False

Now consider COc1ccc(/C=C(\C)C(=O)N2CCC(O)CC2)cc1C(=O)N[C@H]1[C@@H](C(=O)Nc2ccc(F)c(C(F)(F)F)c2)[C@H]2CC[C@@H]1/C2=C\C(F)(F)F [Example 312] and answer again.
True

Now consider COc1ccc(COCC2CC(O)C2)cc1C(=O)N[C@H]1[C@@H](C(=O)Nc2ccc(F)c(C(F)(F)F)c2)[C@H]2CC[C@@H]1/C2=C\C1CC1 (stereo partly drawn) [Example 291] and answer again.
True

Now consider COc1ccc(C2CCCC(OC(=O)Nc3ccccc3)C2)cc1C(=O)N[C@@H]1C2CCC(/C2=C/C(F)(F)F)[C@@H]1C(=O)Nc1ccc(F)c(C(F)(F)F)c1 (single isomer, unassigned) [Example 41] and answer again.
False

Now consider COc1ccc(C2CC3CC(CO)CC32)cc1C(=O)N[C@H]1[C@@H](C(=O)Nc2ccc(F)c(C(F)(F)F)c2)[C@H]2CC[C@@H]1/C2=C\C1CC1 (single isomer, unassigned) [Example 348] and answer again.
True
